System: Pseudomonas aeruginosa ATCC 25619
MEASUREMENT_DESCRIPTION: Antibacterial activity MIC, two-fold agar dilution
Type: cell-based
SETUP_CONDITIONS: ATCC25619; Pseudomonas aeruginosa ATCC 25619; Muller-Hinton agar, 37° C., 20 hours; read-out: Antibacterial Activity MIC
Description: These MIC values were taken by employing a two-fold dilution method: that is, two-fold serial dilutions of each of the test compounds were made and dispersed in a Muller-Hinton agar medium; 2 μl of the standard test strain which had the 10^7 CFU(Colony Forming Unit) per ml was inoculated on the medium; and these were incubated at 37° C. for 20 hours. The results of the MIC tests are shown Table 1.
Below, each entry is listed with its recorded MIC.
Lab note: write values as number then unit, every time.

[[record]]
compound = "CCO/N=C(\\C(=O)N[C@@H]1C(=O)N2C(C(=O)[O-])=C(CSc3cc(N)[n+](CC)c(N)n3)CS[C@H]12)c1nsc(N)n1 [Compound I-11]"
reported_measurement = "0.5 µg/mL"


Prompt: Entry CC[n+]1c(N)nc(N)nc1SCC1=C(C(=O)[O-])N2C(=O)C(NC(=O)/C(=N\OC(C)(C)C(=O)O)c3csc(N)n3)[C@H]2SC1 (stereo partly drawn) [Compound I-24] has what MIC?
Completion: 1 µg/mL

Prompt: Consider the compound CO/N=C(\C(=O)N[C@@H]1C(=O)N2C(C(=O)[O-])=C(CSc3cc(N)nc(N)[n+]3C)CS[C@H]12)c1csc(N)n1 [Compound I-7] and give its measured MIC.
Completion: 2 µg/mL

Prompt: // lookup MIC for CC(O/N=C(\C(=O)N[C@@H]1C(=O)N2C(C(=O)[O-])=C(CSc3cc(N)nc(N)[n+]3C)CS[C@H]12)c1csc(N)n1)C(=O)O (stereo partly drawn) [Compound I-3]
Completion: 1 µg/mL

Prompt: Which MIC value is on record for C#CCO/N=C(\C(=O)N[C@@H]1C(=O)N2C(C(=O)[O-])=C(CSc3cc(N)[n+](C)c(N)n3)CS[C@H]12)c1csc(N)n1 [Compound I-14] ?
Completion: 1 µg/mL

Prompt: For the compound shown here, CCO/N=C(\C(=O)N[C@@H]1C(=O)N2C(C(=O)[O-])=C(CSc3cc(N)[n+](C)c(N)n3)CS[C@H]12)c1nsc(N)n1 [Compound I-10] , give the reported MIC.
Completion: 0.5 µg/mL

Prompt: Look at this compound and give its reported MIC. CC[n+]1c(SCC2=C(C(=O)[O-])N3C(=O)[C@@H](NC(=O)/C(=N\OC(C)(C)C(=O)O)c4csc(N)n4)[C@H]3SC2)cc(N)nc1N [Compound I-2]
Completion: 1 µg/mL

Prompt: Sample CC[n+]1c(N)cc(SCC2=C(C(=O)[O-])N3C(=O)[C@@H](NC(=O)/C(=N\OCC(=O)O)c4csc(N)n4)[C@H]3SC2)nc1N [Compound I-18] — what was its MIC?
Completion: 1 µg/mL

Prompt: Requested field: MIC. Item: CC[n+]1c(N)cc(SCC2=C(C(=O)[O-])N3C(=O)[C@@H](NC(=O)/C(=N\OC(C)(C)C(=O)O)c4csc(N)n4)[C@H]3SC2)nc1N [Compound I-13]
Completion: 1 µg/mL

Prompt: Reported MIC, compound CC(C)(O/N=C(\C(=O)NC1C(=O)N2C(C(=O)[O-])=C(CSc3nc(N)nc(N)[n+]3-c3ccccc3)CS[C@H]12)c1csc(N)n1)C(=O)O (stereo partly drawn) [Compound I-25] : ____
Completion: 1 µg/mL

Prompt: I would be grateful if you could share the reported MIC for CO/N=C(\C(=O)N[C@@H]1C(=O)N2C(C(=O)[O-])=C(CSc3cc(N)[n+](C)c(N)n3)CS[C@H]12)c1csc(N)n1 [Compound I-21] .
Completion: 1 µg/mL

Prompt: What value of MIC has been recorded for this entry: C#CCO/N=C(\C(=O)N[C@@H]1C(=O)N2C(C(=O)[O-])=C(CSc3cc(N)[n+](CC)c(N)n3)CS[C@H]12)c1csc(N)n1 [Compound I-15]
Completion: 1 µg/mL

###

The entries below come with measured MIC values attached.
Tested on: Morganella morganii ATCC 8076h
MEASUREMENT_DESCRIPTION: Antibacterial activity MIC, two-fold agar dilution
Assay type: cell-based
SETUP_CONDITIONS: ATCC8076H, Muller-Hinton agar, 37° C., 20 hours

Before answering, review these 3 worked examples.
[[record]]
compound = "CC[n+]1c(SCC2=C(C(=O)[O-])N3C(=O)[C@@H](NC(=O)/C(=N\\OC(C)C(=O)O)c4csc(N)n4)[C@H]3SC2)cc(N)nc1N (stereo partly shown) [Compound I-4]"
study_system = "Morganella morganii ATCC 8076h"
reported_measurement = "≤ 8 ng/mL"

[[record]]
compound = "CC(O/N=C(\\C(=O)N[C@@H]1C(=O)N2C(C(=O)[O-])=C(CSc3cc(N)nc(N)[n+]3C)CS[C@H]12)c1csc(N)n1)C(=O)O (stereo partly shown) [Compound I-3]"
study_system = "Morganella morganii ATCC 8076h"
reported_measurement = "≤ 8 ng/mL"

[[record]]
compound = "CCO/N=C(\\C(=O)N[C@@H]1C(=O)N2C(C(=O)[O-])=C(CSc3cc(N)[n+](C)c(N)n3)CS[C@H]12)c1nsc(N)n1 [Compound I-10]"
study_system = "Morganella morganii ATCC 8076h"
reported_measurement = "16 ng/mL"


Prompt: What value of measured MIC is listed for CO/N=C(\C(=O)N[C@@H]1C(=O)N2C(C(=O)[O-])=C(CSc3cc(N)nc(N)[n+]3C)CS[C@H]12)c1csc(N)n1 [Compound I-7] ?
Completion: 16 ng/mL

Prompt: Look up MIC: CC[n+]1c(N)cc(SCC2=C(C(=O)[O-])N3C(=O)[C@@H](NC(=O)/C(=N\OC)c4csc(N)n4)[C@H]3SC2)nc1N [Compound I-22]
Completion: ≤ 8 ng/mL

Prompt: I am curious: what MIC value has been reported for CCO/N=C(\C(=O)N[C@@H]1C(=O)N2C(C(=O)[O-])=C(CSc3cc(N)nc(N)[n+]3C)CS[C@H]12)c1nsc(N)n1 [Compound I-5] ?
Completion: ≤ 8 ng/mL

Prompt: Quick one: MIC of CC(O/N=C(\C(=O)N[C@@H]1C(=O)N2C(C(=O)[O-])=C(CSc3cc(N)[n+](C)c(N)n3)CS[C@H]12)c1csc(N)n1)C(=O)O (stereo partly shown) [Compound I-19] ?
Completion: ≤ 8 ng/mL

Prompt: For CC[n+]1c(SCC2=C(C(=O)[O-])N3C(=O)[C@@H](NC(=O)/C(=N\OC(C)(C)C(=O)O)c4csc(N)n4)[C@H]3SC2)cc(N)nc1N [Compound I-2] , what is its reported MIC?
Completion: ≤ 8 ng/mL

Prompt: Given the compound CC[n+]1c(N)nc(N)nc1SCC1=C(C(=O)[O-])N2C(=O)C(NC(=O)/C(=N\OC(C)(C)C(=O)O)c3csc(N)n3)[C@H]2SC1 (stereo partly shown) [Compound I-24] , what is its reported MIC?
Completion: ≤ 8 ng/mL

Prompt: Can you look up the measured MIC of CO/N=C(\C(=O)N[C@@H]1C(=O)N2C(C(=O)[O-])=C(CSc3cc(N)[n+](C)c(N)n3)CS[C@H]12)c1csc(N)n1 [Compound I-21] for me?
Completion: ≤ 8 ng/mL

###

Assay system Morganella morganii ATCC 8076h; read-out recorded as MIC.

[[record]]
compound = "CO/N=C(\\C(=O)N[C@@H]1C(=O)N2C(C(=O)O)=C(COC(C)=O)CS[C@H]12)c1csc(N)n1 [Cefotaxime, reference compound]"
study_system = "Morganella morganii ATCC 8076h"
reported_measurement = "≤ 8 ng/mL"

[[record]]
compound = "CC[n+]1c(N)cc(SCC2=C(C(=O)[O-])N3C(=O)[C@@H](NC(=O)/C(=N\\OCC(=O)O)c4csc(N)n4)[C@H]3SC2)nc1N [Compound I-18]"
study_system = "Morganella morganii ATCC 8076h"
reported_measurement = "≤ 8 ng/mL"


Prompt: // lookup MIC | system=Morganella morganii ATCC 8076h | key= CC[n+]1c(SCC2=C(C(=O)[O-])N3C(=O)[C@@H](NC(=O)/C(=N\OC)c4csc(N)n4)[C@H]3SC2)cc(N)nc1N [Compound I-8]
Completion: 16 ng/mL

Prompt: Give Morganella morganii ATCC 8076h MIC for C[n+]1c(SCC2=C(C(=O)[O-])N3C(=O)[C@@H](NC(=O)/C(=N\OC(C)(C)C(=O)O)c4csc(N)n4)[C@H]3SC2)cc(N)nc1N [Compound I-1]
Completion: ≤ 8 ng/mL

Prompt: Form field - read-out: MIC; system: Morganella morganii ATCC 8076h; submitted item: C[n+]1c(N)nc(N)nc1SCC1=C(C(=O)[O-])N2C(=O)C(NC(=O)/C(=N\OC(C)(C)C(=O)O)c3csc(N)n3)[C@H]2SC1 (stereo partly drawn) [Compound I-23]
Completion: ≤ 8 ng/mL

Prompt: API: value(readout=MIC, system=Morganella morganii ATCC 8076h) for record C#CCO/N=C(\C(=O)N[C@@H]1C(=O)N2C(C(=O)[O-])=C(CSc3cc(N)[n+](C)c(N)n3)CS[C@H]12)c1csc(N)n1 [Compound I-14]
Completion: 16 ng/mL

Prompt: # query: MIC | item C[n+]1c(N)cc(SCC2=C(C(=O)[O-])N3C(=O)[C@@H](NC(=O)/C(=N\OC(C)(C)C(=O)O)c4csc(N)n4)[C@H]3SC2)nc1N [Compound I-12] | system: Morganella morganii ATCC 8076h
Completion: ≤ 8 ng/mL

Prompt: Give Morganella morganii ATCC 8076h MIC for C[n+]1c(N)cc(SCC2=C(C(=O)[O-])N3C(=O)[C@@H](NC(=O)/C(=N\OCC(=O)O)c4csc(N)n4)[C@H]3SC2)nc1N [Compound I-17]
Completion: ≤ 8 ng/mL

Prompt: Find the measured MIC: item CC(C)(O/N=C(\C(=O)N[C@@H]1C(=O)N2C(C(=O)[O-])=C(C[n+]3ccccc3)CS[C@H]12)c1csc(N)n1)C(=O)O [Ceftazidime, reference compound] , target or system Morganella morganii ATCC 8076h.
Completion: 16 ng/mL

Prompt: What measured MIC is associated with CC[n+]1c(N)cc(SCC2=C(C(=O)[O-])N3C(=O)[C@@H](NC(=O)/C(=N\OC(C)C(=O)O)c4csc(N)n4)[C@H]3SC2)nc1N (stereo partly drawn) [Compound I-20] on Morganella morganii ATCC 8076h?
Completion: ≤ 8 ng/mL

Prompt: Value wanted: MIC (Morganella morganii ATCC 8076h) of entry CC(C)(O/N=C(\C(=O)NC1C(=O)N2C(C(=O)[O-])=C(CSc3nc(N)nc(N)[n+]3-c3ccccc3)CS[C@H]12)c1csc(N)n1)C(=O)O (stereo partly drawn) [Compound I-25]
Completion: ≤ 8 ng/mL

Prompt: What measured MIC is associated with CC[n+]1c(N)cc(SCC2=C(C(=O)[O-])N3C(=O)[C@@H](NC(=O)/C(=N\OC(C)(C)C(=O)O)c4csc(N)n4)[C@H]3SC2)nc1N [Compound I-13] on Morganella morganii ATCC 8076h?
Completion: ≤ 8 ng/mL
